The origin of these recorded values is patent US20240043551A1.

target.entity: T1, Full length human TNFR2 on Jurkat E6-1 cells (Clone NO.3) (human, UniProt P20333 23-461)
T1 construct: whole, on cells; also called human TNFR2+ Jurkat cells; hTNFR2 Jurkat
T1 sequence (looked up): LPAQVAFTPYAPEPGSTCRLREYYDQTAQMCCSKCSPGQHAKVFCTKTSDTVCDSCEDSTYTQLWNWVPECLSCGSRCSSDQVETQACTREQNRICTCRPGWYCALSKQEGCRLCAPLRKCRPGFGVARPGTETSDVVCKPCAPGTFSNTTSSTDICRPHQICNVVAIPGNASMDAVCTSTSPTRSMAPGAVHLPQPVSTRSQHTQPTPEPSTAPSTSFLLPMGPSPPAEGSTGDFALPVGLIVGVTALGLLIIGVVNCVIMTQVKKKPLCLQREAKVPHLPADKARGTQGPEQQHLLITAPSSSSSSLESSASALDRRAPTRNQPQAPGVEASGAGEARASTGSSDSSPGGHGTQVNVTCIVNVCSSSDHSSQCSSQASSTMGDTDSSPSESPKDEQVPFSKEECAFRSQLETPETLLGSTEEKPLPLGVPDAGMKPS
assay.name: FACS on human TNFR2+ Jurkat Clone No.3, biotinylated antibody with streptavidin-PE
parameter.measured: binding result

TN36-2 (antibody, human IgG1, V domains shown, Humanized; also called AL2/AL8) VH: EVQLVESGGGLIQPGGSLRLSCAASGFSLSSSAVSWVRQAPGKGLEWIGAIGSGGTSYYSNWAKSRFTISRDNSKNTLYLQMNSLRAEDTAVYYCARDPNSSDYPYGAYGMGLWGRGTLVTVSS VL: DIQMTQSPSSLSASVGDRVTITCQVSQSISSYLSWYQQKPGKAPKLLIYYASTLASGVPSRFSGSGSGTDFTLTISSLQPEDFATYYCQQGYITSNVGNAFGGGTKVEIK :: binds
TN36-5 (antibody, human IgG1, V domains shown, Humanized; also called AL2/AL11) VH: EVQLVESGGGLIQPGGSLRLSCAASGFSLSSSAVSWVRQAPGKGLEWIGAIGSGGTSYYSNWAKSRFTISRDNSKNTLYLQMNSLRAEDTAVYYCARDPNSSDYPYGAYGMGLWGRGTLVTVSS VL: DIQLTQSPSFLSASVGDRVTITCQVSQSISSYLSWYQQKPGKAPKLLIYYASTLASGVPSRFSGSGSGTEFTLTISSLQPEDFATYYCQQGYITSNVGNAFGGGTKVEIK :: binds
TN36-8 (antibody, human IgG1, V domains shown, Humanized; also called AL3/AL10) VH: EVQLVESGGGLIQPGGSLRLSCAASGFSLSSSAVSWVRQAPGKGLEWIGAIGSGGTSYYSNWAKSRFTISRDNSKNTLYLQMNSLRAEDTAVYFCARDPNSSDYPYGAYGMGLWGRGTLVTVSS VL: DIQMTQSPSFLSASVGDRVTITCQVSQSISSYLSWYQQKPGKAPKLLIYYASTLASGVPSRFSGSGSGTDFTLTISSLQPEDFATYYCQQGYITSNVGNAFGGGTKVEIK :: binds
